Ref: patent US20250171542A1

pEC50 values, listed per item
biological target: T1, human PD-L1-His (Sino Biological, Cat #10084-H08H) (human, UniProt Q9NZQ7 19-238); assay: ELISA, coated human PD-L1-His
T1 construct: Bought protein; also called human PD-L1 ECD-His; recombinant human PD-L1-His protein; not shown: His tag
T1 sequence (Q9NZQ7 19-238): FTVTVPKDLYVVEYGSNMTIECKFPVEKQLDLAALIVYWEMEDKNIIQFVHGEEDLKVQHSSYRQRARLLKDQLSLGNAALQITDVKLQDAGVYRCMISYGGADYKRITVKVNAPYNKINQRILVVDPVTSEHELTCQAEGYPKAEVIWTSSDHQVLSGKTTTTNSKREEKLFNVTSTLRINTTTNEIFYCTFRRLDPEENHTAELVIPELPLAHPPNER
A value of pEC50 is the negative decimal logarithm of a concentration given in moles per litre.

Would you please look over these solved cases?
binder	pEC50
56H3 (antibody, human IgG1, V domains shown) VH: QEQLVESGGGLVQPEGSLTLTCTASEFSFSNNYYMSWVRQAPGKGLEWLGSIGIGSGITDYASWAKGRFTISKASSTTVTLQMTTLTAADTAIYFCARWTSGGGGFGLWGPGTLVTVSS VL: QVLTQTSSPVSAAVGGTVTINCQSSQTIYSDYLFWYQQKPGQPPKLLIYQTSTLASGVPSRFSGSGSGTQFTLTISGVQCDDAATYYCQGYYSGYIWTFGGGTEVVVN	10.76
69D10 (antibody, human IgG1, V domains shown) VH: QEQLEESGGGLVQPEGSLTLTCTASGFSFSGDWYMSWVRQAPGKGLEWIASIYSGSLNTYYATWAKGRFTVSLTSSTTVTLQMTSLTAADTATYFCARRNKNADYGHFDLWGPGTLVTVSS VL: YDMTQTPASVEVAVGGTVTIKCQASQSIGNALAWYQQKPGQPPKLLIYATSTLASGVPSRFKGSGSGTEFTLTISDLECGDAATYYCQQGWTVSSLDNAFGGGTEVVAK	10.67

With those in mind, consider the next binder.
I would be grateful if you could share the reported pEC50 for 74A9 (antibody, human IgG1, V domains shown) VH: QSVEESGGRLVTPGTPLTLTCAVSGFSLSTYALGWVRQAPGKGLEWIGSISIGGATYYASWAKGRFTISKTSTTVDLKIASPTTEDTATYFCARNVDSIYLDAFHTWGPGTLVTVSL VL: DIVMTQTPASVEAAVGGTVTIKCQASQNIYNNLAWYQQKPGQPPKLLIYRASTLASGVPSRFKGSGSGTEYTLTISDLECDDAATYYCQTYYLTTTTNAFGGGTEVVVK .
10.64
